# system-tested: human recombinant adrenergic α2A receptor (Homo sapiens, UniProt P08913)
# Construct: expressed in transfected cells; host or cells: insect Sf9 cells
# test-name: Radioligand binding, adrenergic α2A ([3H]MK-912)
# test-parameters: read-out: Percentage inhibition of ligand binding, Adrenergic α2A (0.1 μM), compound at 0.1 μM; [3H]MK-912; repeat datapoints each shown
attribute-measured: inhibition at 0.1 µM (%)

Here is how some compounds turned out for inhibition at 0.1 µM.
GET /values?readout=inhibition at 0.1 µM&system=human recombinant adrenergic α2A receptor (Homo sapiens, UniProt P08913)&item= C/C(=C\n1c2c(c3cc(C)ccc31)C1CCCN1CC2)c1ccc(C)nc1 (stereo not drawn) [compound 193]
77

GET /values?readout=inhibition at 0.1 µM&system=human recombinant adrenergic α2A receptor (Homo sapiens, UniProt P08913)&item= Cc1cnc2c(c1)c1c(n2CC(N)c2ccncc2)CCNC1 (stereo not drawn)
-1

GET /values?readout=inhibition at 0.1 µM&system=human recombinant adrenergic α2A receptor (Homo sapiens, UniProt P08913)&item= Cc1ccc2c(c1)c1c(n2CCc2ccc(Cl)cc2)CCN(C)C1
93

[I] Cc1ccc(CCn2c3c(c4c(Cl)ccc(F)c42)CN(C)CC3)cn1
[II] C/C(=C\n1c2c(c3cc(C)ccc31)CN(C)CC2)c1cccc2ccccc12
[III] Cc1ccc2c(c1)c1c(n2CC(CCN)c2ccncc2)CCN(C)C1 (stereo not drawn)
[IV] Cc1ccc2c(c1)c1c(n2CC(CC(=O)N(C)C)c2ccncc2)CCN(C)C1 (stereo not drawn)
Rank items: key inhibition at 0.1 µM, increasing. # the answer lists labels in the order requested
IV, III, II, I

[1] C=C(Cn1c2c(c3cc(Cl)ccc31)CN(C)CC2)c1ccncc1
[2] COc1ccc(/C(C)=C/n2c3c(c4cc(C)ccc42)CCN(C)CC3)cc1F
Among 1 and 2 , whose measured inhibition at 0.1 µM is the smaller figure? State your choice using its label.
1
(1: 22%, 2: 75%)

[a] Cc1cnc2c(c1)c1c(n2CCc2ccc(C)nc2)CCN(C)C1
[b] C/C(=C\n1c2c(c3cc(C)ccc31)C1CCCN1CC2)c1ccc(C)nc1 (single isomer, unassigned) [193b]
Among a and b , whose measured inhibition at 0.1 µM is the smaller figure? State your choice using its label.
a
(a: 1%, b: 83%)

----------
# system-tested: human recombinant adrenergic α2B receptor (Homo sapiens, UniProt P18089)
# Construct: expressed in transfected cells; host or cells: CHO-K1
# Sequence (P18089 whole entry): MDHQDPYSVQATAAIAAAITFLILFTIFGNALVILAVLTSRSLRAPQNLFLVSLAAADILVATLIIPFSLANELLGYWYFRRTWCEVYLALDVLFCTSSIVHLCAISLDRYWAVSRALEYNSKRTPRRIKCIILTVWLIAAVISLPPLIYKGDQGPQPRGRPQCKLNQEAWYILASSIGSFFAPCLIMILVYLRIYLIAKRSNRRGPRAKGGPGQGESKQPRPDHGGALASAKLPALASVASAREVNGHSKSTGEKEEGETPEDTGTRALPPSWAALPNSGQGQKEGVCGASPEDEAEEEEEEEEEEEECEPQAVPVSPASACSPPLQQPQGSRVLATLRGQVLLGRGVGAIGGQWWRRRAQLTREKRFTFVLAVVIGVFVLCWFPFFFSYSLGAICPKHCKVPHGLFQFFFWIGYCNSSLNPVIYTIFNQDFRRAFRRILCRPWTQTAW
# test-name: Radioligand binding, adrenergic α2B ([3H]Rauwolscine)
# test-parameters: compound at 0.03 μM; [3H]Rauwolscine; repeat assays, each datapoint shown; read-out: Percentage inhibition of ligand binding, Adrenergic α2B
attribute-measured: inhibition at 0.03 µM (%)

GET /values?readout=inhibition at 0.03 µM&system=human recombinant adrenergic α2B receptor (Homo sapiens, UniProt P18089)&item= Cc1ccc2c(c1)c1c(n2CC(O)c2ccc(C(=O)O)cc2)CCN(C)C1 (centres unmarked)
17

[a] CN1CCc2c(c3ccc(C(F)(F)F)cc3n2CC(O)c2cccnc2)C1 (single isomer, unassigned) [40a]
[b] COc1ccc(C(C)(O)Cn2c3c(c4cc(C)ccc42)CN(C)CC3)cn1 (centres unmarked)
API: POST /compare with a and b ; response names the item with higher inhibition at 0.03 µM. State your choice using its label.
b
(b: 62%, a: 27%)

----------
# system-tested: human recombinant adrenergic α2B receptor (Homo sapiens, UniProt P18089)
# Construct: expressed in transfected cells; host or cells: CHO-K1
# test-name: Radioligand binding, adrenergic α2B ([3H]Rauwolscine)
# test-parameters: compound at 0.03 μM; [3H]Rauwolscine; repeat assays, each datapoint shown; 0.03 µM
# Procedure: To evaluate in radioligand binding assays the activity of compounds of the invention, human recombinant adrenergic α2B receptor expressed in Chinese hamster ovary (CHO) K1 cells (Uhlen, S. et al, Eur. J. Pharmacol. 343(1):93, 1998) in a modified Tris-HCl buffer (50 mM Tris-HCl, pH 7.4, 12.5 mM MgCl2, 1 mM EDTA, 0.2% BSA) was used. […] Receptor proteins were filtered and washed, the filters were then counted to determine [3H]Rauwolscine specifically bound. […]
attribute-measured: Percentage inhibition of ligand binding, Adrenergic α2B (%)

Here is how some compounds turned out for Percentage inhibition of ligand binding, Adrenergic α2B.
GET /values?readout=Percentage inhibition of ligand binding, Adrenergic α2B&system=human recombinant adrenergic α2B receptor (Homo sapiens, UniProt P18089)&item= Cc1ccc2c(c1)c1c(n2CC(O)c2ccncc2)CCN2CCCCC12 (single isomer, unassigned) [47d]
30

GET /values?readout=Percentage inhibition of ligand binding, Adrenergic α2B&system=human recombinant adrenergic α2B receptor (Homo sapiens, UniProt P18089)&item= Cc1ccc2c(c1)c1c(n2CC(C)(O)c2ccncc2)CN(C)CC1 (single isomer, unassigned) [19a]
75

GET /values?readout=Percentage inhibition of ligand binding, Adrenergic α2B&system=human recombinant adrenergic α2B receptor (Homo sapiens, UniProt P18089)&item= Cc1cnc2c(c1)c1c(n2CC(O)c2ccncc2)CCNC1 (single isomer, unassigned) [58a]
5

GET /values?readout=Percentage inhibition of ligand binding, Adrenergic α2B&system=human recombinant adrenergic α2B receptor (Homo sapiens, UniProt P18089)&item= Cc1ccc2c(c1)c1c(n2CC(O)c2ccncc2)CCN(C)CC1 (single isomer, unassigned) [13a]
37

GET /values?readout=Percentage inhibition of ligand binding, Adrenergic α2B&system=human recombinant adrenergic α2B receptor (Homo sapiens, UniProt P18089)&item= Cc1ccc2c(c1)c1c(n2CC(C)(O)c2cccnc2)CN(C)CC1 (single isomer, unassigned) [14a]
98

GET /values?readout=Percentage inhibition of ligand binding, Adrenergic α2B&system=human recombinant adrenergic α2B receptor (Homo sapiens, UniProt P18089)&item= OC(Cn1c2c(c3cccnc31)CN1CCCC1C2)c1ccncc1 (single isomer, unassigned) [37b]
−3

[P] Cc1ccc2c(c1)c1c(n2CC(C)(O)c2ccc[n+]([O-])c2)CCN(C)C1 (single isomer, unassigned) [56b]
[Q] CN1CCc2c(c3cc(C(C)(C)O)ccc3n2CC(O)c2ccncc2)C1 (single isomer, unassigned) [23b]
API: POST /compare with P and Q ; response names the item with higher Percentage inhibition of ligand binding, Adrenergic α2B. State your choice using its label.
P
(P: 28%, Q: −3%)

[P] CC(O)(Cn1c2c(c3cc(Cl)ccc31)CNCC2)c1ccncn1 (single isomer, unassigned) [42b]
[Q] CN1CCc2c(c3cc(Cl)ccc3n2CC(O)c2cccnc2)C1 (single isomer, unassigned) [7a]
[R] CC(=O)c1ccc2c(c1)c1c(n2CC(O)c2ccncc2)CCN(C)C1 (single isomer, unassigned) [49b]
Order the 3 compounds from highest to lowest Percentage inhibition of ligand binding, Adrenergic α2B. # the answer lists labels in the order requested
Q, P, R
(Q: 59%, P: 34%, R: 19%)

----------
# system-tested: human recombinant adrenergic α2A receptor (Homo sapiens, UniProt P08913)
# Construct: expressed in transfected cells; host or cells: insect Sf9 cells
# Sequence (P08913 1-465): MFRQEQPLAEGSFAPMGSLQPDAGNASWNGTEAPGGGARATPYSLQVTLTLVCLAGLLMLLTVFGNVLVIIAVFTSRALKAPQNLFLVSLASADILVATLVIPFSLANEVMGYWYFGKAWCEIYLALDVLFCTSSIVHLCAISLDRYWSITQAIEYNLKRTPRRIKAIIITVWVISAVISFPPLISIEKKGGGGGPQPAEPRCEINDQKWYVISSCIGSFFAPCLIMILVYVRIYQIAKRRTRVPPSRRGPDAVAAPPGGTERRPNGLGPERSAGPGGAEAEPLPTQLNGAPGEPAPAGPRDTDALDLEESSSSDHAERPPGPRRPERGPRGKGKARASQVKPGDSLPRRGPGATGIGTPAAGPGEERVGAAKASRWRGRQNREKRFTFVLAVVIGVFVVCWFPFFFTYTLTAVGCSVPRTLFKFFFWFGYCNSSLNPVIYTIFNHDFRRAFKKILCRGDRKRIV
# test-name: Radioligand binding, adrenergic α2A ([3H]MK-912)
# test-parameters: compound at 0.1 μM; [3H]MK-912; repeat datapoints each shown; 0.1 µM
attribute-measured: Percentage inhibition of ligand binding, Adrenergic α2A (0.1 μM) (%)

Here is how some molecules turned out for Percentage inhibition of ligand binding, Adrenergic α2A (0.1 μM).
// query Percentage inhibition of ligand binding, Adrenergic α2A (0.1 μM) value for entry Cc1ccc2c(c1)c1c(n2CC(C)(O)c2cccnc2)CC(C)N(C)C1 (single isomer, unassigned) [II-146a]
47

// query Percentage inhibition of ligand binding, Adrenergic α2A (0.1 μM) value for entry Cc1ccc2c(c1)c1c(n2CC(OC(=O)N(C)C)c2ccncc2)CCN(C)C1 (single isomer, unassigned) [141a]
−5

// query Percentage inhibition of ligand binding, Adrenergic α2A (0.1 μM) value for entry Cc1cnc2c(c1)c1c(n2CC(C)(O)c2ccc(C(F)(F)F)nc2)CCN(C)C1 (single isomer, unassigned) [II-108b]
−6

[I] Cc1ccc2c(c1)c1c(n2CC(O)c2cc[nH]c(=O)c2)CCN2CCCC12 (single isomer, unassigned) [II-132a]
[II] Cc1ccc2c(c1)c1c(n2CC(C)(O)c2cccnc2)CCN2CCCC12 (single isomer, unassigned) [II-127b]
[III] Cc1cnc2c(c1)c1c(n2CC(C)(O)c2ccc(F)cc2)CCN2CCCC12 (single isomer, unassigned) [II-149b]
Order the 3 molecules from highest to lowest Percentage inhibition of ligand binding, Adrenergic α2A (0.1 μM). # the answer lists labels in the order requested
II, III, I

[P] CN1CCc2c(c3ccccc3n2CC(C)(O)c2cccnc2)C1 (single isomer, unassigned) [173b]
[Q] Cc1ccc2c(c1)c1c(n2CC(CC(O)C(C)(C)C)c2ccncc2)CCN(C)C1 (single isomer, unassigned) [II-227c]
Among P and Q , whose measured Percentage inhibition of ligand binding, Adrenergic α2A (0.1 μM) is the smaller figure? State your choice using its label.
P

[A] Cc1ccc2c(c1)c1c(n2CC(C)(O)c2ccc(O)cc2)CCN(C)C1 (stereo not drawn)
[B] COc1ccc(/C(C)=C/n2c3c(c4cc(Cl)ccc42)CCN(C)CC3)cc1F
[C] CN1CCc2c(c3ccccc3n2CC(C)(O)c2cccnc2)C1 (single isomer, unassigned) [173a]
Order the 3 molecules from highest to lowest Percentage inhibition of ligand binding, Adrenergic α2A (0.1 μM). # the answer lists labels in the order requested
B, A, C

[I] Cc1ccc2c(c1)c1c(n2CC(C)(O)c2cccnc2)CC(C)N(C)C1 (single isomer, unassigned) [II-146d]
[II] Cc1ccc(C(C)(O)Cn2c3c(c4cc(Cl)ccc42)CN(C)CC3)cn1 (single isomer, unassigned) [93b]
[III] Cc1ccc2c(c1)c1c(n2CC(O)c2ccc(C#N)nc2)CCN(C)C1 (stereo not drawn) [compound 140]
Order the 3 molecules from highest to lowest Percentage inhibition of ligand binding, Adrenergic α2A (0.1 μM). # the answer lists labels in the order requested
I, III, II
(I: 3%, III: −2%, II: −5%)
